- target_or_system: hCMV UL130 + UL131A (co-expressed in HEK293T cells) (human cytomegalovirus, UniProt P16772 1-214; F5HET4 19-129)
- test: cell-based or functional assay
assay_metric: 90% Neutralization ARPE (µg/mL)
Report the figure in µg/mL without appending any unit label.

Task: Name the reported 90% Neutralization ARPE value associated with the binder 10F7 (antibody, V domains shown) VH: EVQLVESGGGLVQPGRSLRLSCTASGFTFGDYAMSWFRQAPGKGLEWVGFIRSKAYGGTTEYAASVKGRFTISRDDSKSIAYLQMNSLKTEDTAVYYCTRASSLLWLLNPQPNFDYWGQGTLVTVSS VL: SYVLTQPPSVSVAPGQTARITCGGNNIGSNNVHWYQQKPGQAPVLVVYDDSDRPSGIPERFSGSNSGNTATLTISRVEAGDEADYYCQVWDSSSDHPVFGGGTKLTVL
Result: 0.002

Task: Recorded 90% Neutralization ARPE of 8L13 (antibody, V domains shown) VH: QVQLLESGGGVVQPGRSLRLSCAASGFTFSNYGMHWVRQAPGKGLEWVAVIWNDGSKKYYAESVKGRFTISRDNSKNTVYLQMNSLRAEDTAVYYCARDEGVQMVFAMPDYGMDVWGQGTTVTVSS VL: SYELTQPPSVSVSPGQTASITCSGDKLGDKFACWYQQRPGQSPILVIYQDSKRPSGIPERFSGSNSGNTATLTIRGTQAMDEADYYCQAWDSSTAHYVFGTGTKVTVL , please.
Result: 0.001

Task: Could you share which 90% Neutralization ARPE value was measured for 10P3 (antibody, V domains shown) VH: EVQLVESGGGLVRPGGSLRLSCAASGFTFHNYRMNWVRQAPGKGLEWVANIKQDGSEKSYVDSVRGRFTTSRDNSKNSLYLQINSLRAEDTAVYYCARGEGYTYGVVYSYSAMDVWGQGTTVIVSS VL: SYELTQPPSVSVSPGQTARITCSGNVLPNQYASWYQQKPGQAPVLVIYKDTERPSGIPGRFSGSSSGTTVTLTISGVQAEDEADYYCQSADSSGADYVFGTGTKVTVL ?
Result: 0.0025

Task: 90% Neutralization ARPE lookup needed for 4N10 (antibody, V domains shown) VH: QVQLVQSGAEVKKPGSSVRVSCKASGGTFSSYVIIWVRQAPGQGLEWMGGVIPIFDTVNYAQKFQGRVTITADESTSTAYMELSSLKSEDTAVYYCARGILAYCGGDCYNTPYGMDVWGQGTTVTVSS VL: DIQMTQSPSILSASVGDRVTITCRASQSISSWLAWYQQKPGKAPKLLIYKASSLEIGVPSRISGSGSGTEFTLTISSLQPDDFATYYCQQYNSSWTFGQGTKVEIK , thanks.
Result: 0.02

Turning to the following binder.
Task: Which 90% Neutralization ARPE reading was recorded for the binder 4I22 (antibody, V domains shown) VH: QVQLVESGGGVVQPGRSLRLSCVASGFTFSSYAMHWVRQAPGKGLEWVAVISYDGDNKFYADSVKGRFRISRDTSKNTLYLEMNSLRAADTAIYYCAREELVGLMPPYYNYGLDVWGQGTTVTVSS VL: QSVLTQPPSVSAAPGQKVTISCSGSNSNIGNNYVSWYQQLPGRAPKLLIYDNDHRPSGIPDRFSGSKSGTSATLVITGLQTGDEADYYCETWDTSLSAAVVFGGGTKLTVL ?
Result: 0.0015
